For each record, write down the corresponding Kd.
The answer is to be given in nM; state only the numeric part.

I'm curious: which Kd was measured for "COc1cccc(-c2nc(SCC(=O)Nc3nc(-c4cccc(Br)c4)cs3)[nH]c(=O)c2C#N)c1" tested on Beta-secretase 1 (Homo sapiens, UniProt P56817)?
1740

Lab request: please report Kd under test system Beta-secretase 1 (Homo sapiens, UniProt P56817) for "COc1cccc(-c2nc(SCC(=O)Nc3nc(-c4cc(Cl)c(N)c(Cl)c4)c[nH]3)[nH]c(=O)c2C#N)c1"
169

# query: Kd | item "N#Cc1c(-c2cccc(C(F)(F)F)c2)nc(SCC(=O)Nc2nc(-c3cc(Cl)c(N)c(Cl)c3)cs2)[nH]c1=O" | system: Beta-secretase 1 (Homo sapiens, UniProt P56817)
1330
